# System: Lolium perenne (LOLPE)
# measurement-protocol: Glasshouse assay for herbicidal activity (pre- and post-emergence), percentage phytotoxicity
# Assay type: in vivo
# experimental-context: Lolium perenne, pre-emergence, 480 h, Rate 250 g/ha; pre-emergence; visual assessment 20 DAA; 100%=total damage, 0%=no damage; read-out: Pre-emergence herbicidal activity (percentage phytotoxicity) LOLPE PRE
measure: pest or weed control at 250 g/ha (%)
Numeric answer only, unit % assumed.

Lookup result for CC#Cc1cc(C)c(C2C(=O)CC(CC(=O)NC(C)(C)C#N)C2=O)c(C)c1 (centres unmarked) ; measured pest or weed control at 250 g/ha: 70

Lookup result for Cc1cc(-c2ccc(Cl)cn2)cc(C)c1C1C(=O)CC(CC(=O)N(C)Cc2cccc(F)c2)C1=O (centres unmarked) ; measured pest or weed control at 250 g/ha: 90

Lookup result for C#CCN(C)C(=O)CC1CC(=O)C(c2c(C)cc(-c3ncc(Cl)cn3)cc2C)C1=O (centres unmarked) ; measured pest or weed control at 250 g/ha: 90

Lookup result for Cc1cc(-c2ccc(F)cn2)cc(C)c1C1C(=O)CC(CC(=O)N(C)C(C)C)C1=O (centres unmarked) ; measured pest or weed control at 250 g/ha: 100

Lookup result for Cc1cc(-c2ncc(Cl)cn2)cc(C)c1C1C(=O)CC(CC(=O)N(C)C(C)(C)C)C1=O (centres unmarked) ; measured pest or weed control at 250 g/ha: 90

Lookup result for C=Cc1cc(-c2ncc(F)cc2F)cc(C)c1C1C(=O)CC(CC(=O)NC(C)(C)C)C1=O (centres unmarked) ; measured pest or weed control at 250 g/ha: 60

Lookup result for Cc1cc(-c2ccc(F)cn2)cc(C)c1C1C(=O)CC(CC(=O)NC(C)C)C1=O (centres unmarked) ; measured pest or weed control at 250 g/ha: 100

Lookup result for C=CCNC(=O)CC1CC(=O)C(c2c(C)cc(-c3ccc(F)cn3)cc2C)C1=O (centres unmarked) ; measured pest or weed control at 250 g/ha: 100

###

# Test system: Lolium perenne (LOLPE)
# measurement-protocol: Glasshouse assay for herbicidal activity (pre- and post-emergence), percentage phytotoxicity
# Assay type: in vivo
# experimental-context: Lolium perenne, pre-emergence, 480 h, Rate 250 g/ha; pre-emergence; visual assessment 20 DAA; 100%=total damage, 0%=no damage; read-out: Pre-emergence herbicidal activity (percentage phytotoxicity) LOLPE PRE
Consider the following compounds; for each one, report its pest or weed control at 250 g/ha.
Numeric answer only, unit % assumed.

Lookup result for Cc1cc(-c2ccc(Cl)cn2)cc(C)c1C1C(=O)CC(CC(=O)NCC2CC2)C1=O (stereo not shown) ; measured pest or weed control at 250 g/ha: 100

Lookup result for Cc1cc(-c2ncc(Cl)cn2)cc(C)c1C1C(=O)CC(CC(=O)NCc2cccc(Br)c2)C1=O (stereo not shown) ; measured pest or weed control at 250 g/ha: 90

Lookup result for Cc1cc(C)c(C2=C(OC(=O)C(C)(C)C)CC(CC(=O)NC3(C)COC3)C2=O)c(C)c1 (stereo not shown) ; measured pest or weed control at 250 g/ha: 80

Lookup result for C#CCN(C)C(=O)CC1CC(=O)C(c2c(C)cc(-c3ncc(F)cn3)cc2C)C1=O (stereo not shown) ; measured pest or weed control at 250 g/ha: 100

Lookup result for Cc1cc(-c2ccc(Cl)cn2)cc(C)c1C1C(=O)CC(CC(=O)NCc2cccc(Cl)c2)C1=O (stereo not shown) ; measured pest or weed control at 250 g/ha: 90

Lookup result for COc1ccc(CNC(=O)CC2CC(=O)C(c3c(C)cc(-c4ncc(Cl)cn4)cc3C)C2=O)cc1 (stereo not shown) ; measured pest or weed control at 250 g/ha: 80

Lookup result for Cc1cc(-c2ncc(Cl)cn2)cc(C)c1C1C(=O)CC(CC(=O)N(C)Cc2cccc(F)c2)C1=O (stereo not shown) ; measured pest or weed control at 250 g/ha: 100

Lookup result for C#CCNC(=O)CC1CC(=O)C(c2c(C)cc(-c3ccc(F)cn3)cc2C)C1=O (stereo not shown) ; measured pest or weed control at 250 g/ha: 90

Lookup result for C#CCNC(=O)CC1CC(=O)C(c2c(C)cc(-c3ncc(F)cc3F)cc2C)C1=O (stereo not shown) ; measured pest or weed control at 250 g/ha: 100

Lookup result for Cc1cc(-c2ncc(Cl)cn2)cc(C)c1C1C(=O)CC(CC(=O)NCc2cccs2)C1=O (stereo not shown) ; measured pest or weed control at 250 g/ha: 90

Lookup result for Cc1cc(-c2ncc(Cl)cn2)cc(C)c1C1C(=O)CC(CC(=O)NC/C=C/Cl)C1=O (stereo not shown) ; measured pest or weed control at 250 g/ha: 90

Lookup result for Cc1cc(-c2ccc(Cl)cn2)cc(C)c1C1C(=O)CC(CC(=O)N(C)C(C)(C)C)C1=O (stereo not shown) ; measured pest or weed control at 250 g/ha: 100

Lookup result for C#CC(C)(C)NC(=O)CC1CC(=O)C(c2c(C)cc(-c3ccc(F)cn3)cc2C)C1=O (stereo not shown) ; measured pest or weed control at 250 g/ha: 90

Lookup result for C#CC(C)(C)NC(=O)CC1CC(=O)C(c2c(C)cc(-c3ccc(Cl)cn3)cc2C)C1=O (stereo not shown) ; measured pest or weed control at 250 g/ha: 100

Lookup result for Cc1cc(-c2ccc(Cl)cc2)cc(C)c1C1C(=O)CC(CC(=O)NC(C)(C)C#N)C1=O (stereo not shown) ; measured pest or weed control at 250 g/ha: 80

Lookup result for C=CC(C)NC(=O)CC1CC(=O)C(c2c(C)cc(-c3ncc(Cl)cn3)cc2C)C1=O (stereo not shown) ; measured pest or weed control at 250 g/ha: 100

Numbers sourced from patent US10206394B2.
